Listed compounds paired with reported EC50
- experimental.target: HIV-1 protease (Human immunodeficiency virus type 1 group M subtype B)
- method.notes: HIV-1 protease inhibition assay

compound.structure	property.label	result.value
NC(=O)CCNC(=O)c1ccccc1S	EC50	> 100 µM

Now look at this one.
# input Tell me measured EC50 for CCCC(=O)OCSc1ccccc1C(=O)NCCC(N)=O please.
# output > 100 µM

* * *

- Test system: drug-resistant HIV-1 strains
- method.notes: Antiviral activity against drug-resistant HIV-1 strains in MT-4
- Format: cell-based
- applied.conditions: Human immunodeficiency virus 1, read-out: Mean EC50 ± SD, positive control, NNRTI-resistant, RT Y181C; MT-4
property.label: pEC50
Reminder that pEC50 is minus the log10 of a molar concentration.

# input Lab note: record pEC50 of Cc1cn([C@H]2C[C@H](N=[N+]=[N-])[C@@H](CO)O2)c(=O)[nH]c1=O [AZT, reference compound] tested on drug-resistant HIV-1 strains.
# output 9.00

* * *

- Tested on: drug resistant clinical HIV isolates
- method.notes: Antiviral activity against drug-resistant HIV-1 in PBMCs
- Assay type: cell-based
- applied.conditions: Human immunodeficiency virus 1, PBMC, read-out: PBMC/HIV-1 EC50 ± SD, NNRTI-resistant N119
property.label: EC50
The answer should read as a number with its unit following.

compound	EC50
NC(=O)CCNC(=O)c1ccccc1S	2.58 µM
Cc1nnc(C(=O)NC(C)(C)c2nc(C(=O)NCc3ccc(F)cc3)c(O)c(=O)n2C)o1 [Raltegravir, reference compound]	3.54 µM

Now look at this one.
# input Tell me measured EC50 for CCCC(=O)OCSc1ccccc1C(=O)NCCC(N)=O please.
# output 5.9 µM

* * *

- Tested on: drug resistant clinical HIV isolates
- method.notes: Antiviral activity against drug-resistant HIV-1 in PBMCs
- Assay type: cell-based
- applied.conditions: Human immunodeficiency virus 1, PBMC, read-out: PBMC/HIV-1 EC50 ± SD, Wild Type 92US727
property.label: EC50
The answer should read as a number with its unit following.

// worked examples, EC50 included
compound	EC50
NC(=O)CCNC(=O)c1ccccc1S	3.32 µM
Cc1nnc(C(=O)NC(C)(C)c2nc(C(=O)NCc3ccc(F)cc3)c(O)c(=O)n2C)o1 [Raltegravir, reference compound]	10.5 µM

# input Lab note: record EC50 of CCCC(=O)OCSc1ccccc1C(=O)NCCC(N)=O tested on drug resistant clinical HIV isolates.
# output 5.58 µM

* * *

- method.notes: Pharmacokinetics in rats
- Assay type: in vivo
- applied.conditions: male, Sprague-Dawley, rat, plasma, po, 1000 mg/kg
property.label: bioavailability (%)
Express your answer in %, writing the number without its unit.

# input Tell me measured bioavailability for NC(=O)CCNC(=O)c1ccccc1S please.
# output 64

* * *

Listed compounds paired with reported EC50
- System: drug-resistant HIV-1 strains
- method.notes: Antiviral activity against drug-resistant HIV-1 strains in MT-4
- Format: cell-based
- applied.conditions: Human immunodeficiency virus 1, read-out: Mean EC50 ± SD, Atazanavir-resistant, PR I50L; MT-4
The answer should read as a number with its unit following.

compound	property.label	result.value
CCCC(=O)OCSc1ccccc1C(=O)NCCC(N)=O [NS1040]	EC50	1.27 µM

Now look at this one.
# input Tell me measured EC50 for NC(=O)CCNC(=O)c1ccccc1S [MDH-1-38] please.
# output 0.82 µM

* * *

- Tested on: drug resistant clinical HIV isolates
- method.notes: Antiviral activity against drug-resistant HIV-1 in PBMCs
- Format: cell-based
- applied.conditions: Human immunodeficiency virus 1, PBMC, read-out: PBMC/HIV-1 EC50 ± SD, Multi-drug resistant MDR769
property.label: pEC50
Reminder that pEC50 is minus the log10 of a molar concentration.

// worked examples, pEC50 included
molecule	experimental.target	pEC50
Cc1nnc(C(=O)NC(C)(C)c2nc(C(=O)NCc3ccc(F)cc3)c(O)c(=O)n2C)o1 [Raltegravir, reference compound]	drug resistant clinical HIV isolates	5.63
NC(=O)CCNC(=O)c1ccccc1S	drug resistant clinical HIV isolates	5.46

# input Tell me measured pEC50 for CCCC(=O)OCSc1ccccc1C(=O)NCCC(N)=O please.
# output 5.32

* * *

- experimental.target: UniProt P04585
- method.notes: HIV-1 integrase inhibition assay
pEC50: −log10 of the molar value.
property.label: pEC50

compound.structure	result.value
NC(=O)CCNC(=O)c1ccccc1S	< 4.00

Now look at this one.
# input Tell me measured pEC50 for CCCC(=O)OCSc1ccccc1C(=O)NCCC(N)=O please.
# output < 4.00

* * *

Listed molecules paired with reported EC50
- System: drug-resistant HIV-1 strains
- method.notes: Antiviral activity against drug-resistant HIV-1 strains in MT-4
- Assay type: cell-based
- applied.conditions: Human immunodeficiency virus 1, read-out: Mean EC50 ± SD, Didanosine-resistant, RT L74V; MT-4
Express your answer in µM, writing the number without its unit.

compound.structure	property.label	result.value
CCCC(=O)OCSc1ccccc1C(=O)NCCC(N)=O	EC50	4.59

Now look at this one.
# input Tell me measured EC50 for NC(=O)CCNC(=O)c1ccccc1S please.
# output 3.93

* * *

- Tested on: drug-resistant HIV-1 strains
- method.notes: Antiviral activity against drug-resistant HIV-1 strains in MT-4
- Assay type: cell-based
- applied.conditions: Human immunodeficiency virus 1, read-out: Mean EC50 ± SD, positive control, NNRTI-resistant, RT L100I; MT-4
property.label: EC50 (nM)
Express your answer in nM, writing the number without its unit.

# input Tell me measured EC50 for Cc1cn([C@H]2C[C@H](N=[N+]=[N-])[C@@H](CO)O2)c(=O)[nH]c1=O [AZT, reference compound] please.
# output 0.65

* * *

Listed compounds paired with reported CC50
- method.notes: in vitro
- applied.conditions: human, CC50 (cytotoxic concentration), fresh human PBMCs

compound.structure	result.value
CCCC(=O)OCSc1ccccc1C(=O)NCCC(N)=O	> 216 µM

Now look at this one.
# input Tell me measured CC50 for NC(=O)CCNC(=O)c1ccccc1S please.
# output > 231 µM

* * *

- experimental.target: wild type HIV-1 RT (Human immunodeficiency virus type 1 group M subtype B)
- method.notes: Biochemical RT inhibition assay
property.label: EC50

compound.structure	property.label	result.value
CCCC(=O)OCSc1ccccc1C(=O)NCCC(N)=O	EC50	> 100 µM

# input Tell me measured EC50 for NC(=O)CCNC(=O)c1ccccc1S please.
# output > 100 µM

* * *

- System: drug resistant clinical HIV isolates
- method.notes: Antiviral activity against drug-resistant HIV-1 in PBMCs
- Type: cell-based
- applied.conditions: Human immunodeficiency virus 1, PBMC, read-out: PBMC/HIV-1 EC50 ± SD, PI-resistant 1026-60
Listed compounds paired with reported pEC50
Reminder that pEC50 is minus the log10 of a molar concentration.

compound	experimental.target	pEC50
NC(=O)CCNC(=O)c1ccccc1S	drug resistant clinical HIV isolates	5.57
Cc1nnc(C(=O)NC(C)(C)c2nc(C(=O)NCc3ccc(F)cc3)c(O)c(=O)n2C)o1 [Raltegravir, reference compound]	drug resistant clinical HIV isolates	5.75

Now look at this one.
# input Lab note: record pEC50 of CCCC(=O)OCSc1ccccc1C(=O)NCCC(N)=O tested on drug resistant clinical HIV isolates.
# output 5.48

* * *

- Test system: drug resistant clinical HIV isolates
- method.notes: Antiviral activity against drug-resistant HIV-1 in PBMCs
- Type: cell-based
- applied.conditions: Human immunodeficiency virus 1, PBMC, read-out: PBMC/HIV-1 EC50 ± SD, PI-resistant 1064-52
Listed compounds paired with reported EC50
Express your answer in nM, writing the number without its unit.

compound	result.value
Cc1nnc(C(=O)NC(C)(C)c2nc(C(=O)NCc3ccc(F)cc3)c(O)c(=O)n2C)o1 [Raltegravir, reference compound]	860
NC(=O)CCNC(=O)c1ccccc1S	3060

# input Tell me measured EC50 for CCCC(=O)OCSc1ccccc1C(=O)NCCC(N)=O please.
# output 2620

* * *

- Test system: drug-resistant HIV-1 strains
- method.notes: Antiviral activity against drug-resistant HIV-1 strains in MT-4
- Assay type: cell-based
- applied.conditions: Human immunodeficiency virus 1, read-out: Mean EC50 ± SD, positive control, NNRTI-resistant, RT V108I; MT-4
property.label: pEC50
Reminder that pEC50 is minus the log10 of a molar concentration.

# input Lab note: record pEC50 of Cc1cn([C@H]2C[C@H](N=[N+]=[N-])[C@@H](CO)O2)c(=O)[nH]c1=O [AZT, reference compound] tested on drug-resistant HIV-1 strains.
# output 8.82

* * *

- Tested on: drug-resistant HIV-1 strains
- method.notes: Antiviral activity against drug-resistant HIV-1 strains in MT-4
- Assay type: cell-based
- applied.conditions: Human immunodeficiency virus 1, read-out: Mean EC50 ± SD, NNRTI-resistant, RT K103N/Y181C; MT-4
Listed compounds paired with reported EC50
Express your answer in µM, writing the number without its unit.

compound.structure	experimental.target	EC50 [µM]
CCCC(=O)OCSc1ccccc1C(=O)NCCC(N)=O	drug-resistant HIV-1 strains	5.19

Now look at this one.
# input Tell me measured EC50 for NC(=O)CCNC(=O)c1ccccc1S please.
# output 8.03

Source: paper PMC7113734
